Experimental Target: Platelet-derived growth factor receptor beta (Homo sapiens, UniProt P09619)
Sequence (P09619 whole entry): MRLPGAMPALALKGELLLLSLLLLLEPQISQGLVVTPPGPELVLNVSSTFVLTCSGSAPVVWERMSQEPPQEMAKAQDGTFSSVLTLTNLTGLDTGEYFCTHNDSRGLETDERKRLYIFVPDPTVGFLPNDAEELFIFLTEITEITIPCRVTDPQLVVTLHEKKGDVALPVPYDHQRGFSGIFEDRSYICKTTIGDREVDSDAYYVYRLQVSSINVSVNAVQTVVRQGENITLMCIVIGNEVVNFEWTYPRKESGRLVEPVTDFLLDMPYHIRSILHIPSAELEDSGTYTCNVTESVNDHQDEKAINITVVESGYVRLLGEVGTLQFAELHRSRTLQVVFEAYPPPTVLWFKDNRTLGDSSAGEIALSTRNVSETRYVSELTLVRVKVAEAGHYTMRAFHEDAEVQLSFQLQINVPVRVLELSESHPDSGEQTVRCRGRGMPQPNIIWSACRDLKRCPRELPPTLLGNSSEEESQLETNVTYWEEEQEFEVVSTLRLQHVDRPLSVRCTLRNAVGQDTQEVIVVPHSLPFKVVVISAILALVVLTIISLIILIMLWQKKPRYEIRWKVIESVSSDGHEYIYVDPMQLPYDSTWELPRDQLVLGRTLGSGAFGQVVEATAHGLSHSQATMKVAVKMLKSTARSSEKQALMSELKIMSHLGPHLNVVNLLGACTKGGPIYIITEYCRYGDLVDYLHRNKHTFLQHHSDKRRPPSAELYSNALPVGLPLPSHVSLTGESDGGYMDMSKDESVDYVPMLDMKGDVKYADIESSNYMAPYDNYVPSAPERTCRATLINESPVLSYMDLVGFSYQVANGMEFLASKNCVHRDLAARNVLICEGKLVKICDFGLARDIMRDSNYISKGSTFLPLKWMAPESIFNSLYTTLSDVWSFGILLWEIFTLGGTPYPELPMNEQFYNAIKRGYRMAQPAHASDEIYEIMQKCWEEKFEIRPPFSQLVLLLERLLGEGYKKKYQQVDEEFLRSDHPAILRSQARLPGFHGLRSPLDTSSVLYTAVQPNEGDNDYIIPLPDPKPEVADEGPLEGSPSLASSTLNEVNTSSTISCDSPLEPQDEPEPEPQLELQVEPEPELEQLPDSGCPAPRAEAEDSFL
Quantity Kind: IC50 (nM)
Give a bare numeral; the unit nM is implied.

Which measured IC50 value corresponds to `O=C(NC(=S)Nc1ccc(O)c(-c2nc3ccccc3s2)c1)c1ccc([N+](=O)[O-])cc1` ? 1000

====

This section lists IC50 readings for Epidermal growth factor receptor (Homo sapiens, UniProt P00533).
Record the value in µM, omitting the unit from your answer.

COc1cc2ncnc(Nc3ccc(-c4nc5ccccc5s4)cc3)c2cc1OC    1.5

Test system Epidermal growth factor receptor (Homo sapiens, UniProt P00533); read-out IC50; what value for `COc1cc(Nc2ncnc3[nH]ccc23)ccc1-c1nc2ccccc2s1` ? 0.72

Missing value: IC50, Epidermal growth factor receptor (Homo sapiens, UniProt P00533), entry `O=C(NC(=S)Nc1ccc(O)c(-c2nc3ccccc3s2)c1)c1ccc([N+](=O)[O-])cc1` . Fill in? 0.28

Query for Epidermal growth factor receptor (Homo sapiens, UniProt P00533): what IC50 does the record show for `COc1cc2ncnc(Nc3ccc(-c4nc5ccccc5s4)c(OC)c3)c2cc1OC` ? 0.063

// fetch Epidermal growth factor receptor (Homo sapiens, UniProt P00533) IC50 for `CNC(=O)c1cc(Nc2ccc(-c3nc4ccccc4s3)cc2)ccn1` 2

====

Let's go through some pIC50 measurements on Epidermal growth factor receptor (Homo sapiens) together.
Sequence (P00533 whole entry): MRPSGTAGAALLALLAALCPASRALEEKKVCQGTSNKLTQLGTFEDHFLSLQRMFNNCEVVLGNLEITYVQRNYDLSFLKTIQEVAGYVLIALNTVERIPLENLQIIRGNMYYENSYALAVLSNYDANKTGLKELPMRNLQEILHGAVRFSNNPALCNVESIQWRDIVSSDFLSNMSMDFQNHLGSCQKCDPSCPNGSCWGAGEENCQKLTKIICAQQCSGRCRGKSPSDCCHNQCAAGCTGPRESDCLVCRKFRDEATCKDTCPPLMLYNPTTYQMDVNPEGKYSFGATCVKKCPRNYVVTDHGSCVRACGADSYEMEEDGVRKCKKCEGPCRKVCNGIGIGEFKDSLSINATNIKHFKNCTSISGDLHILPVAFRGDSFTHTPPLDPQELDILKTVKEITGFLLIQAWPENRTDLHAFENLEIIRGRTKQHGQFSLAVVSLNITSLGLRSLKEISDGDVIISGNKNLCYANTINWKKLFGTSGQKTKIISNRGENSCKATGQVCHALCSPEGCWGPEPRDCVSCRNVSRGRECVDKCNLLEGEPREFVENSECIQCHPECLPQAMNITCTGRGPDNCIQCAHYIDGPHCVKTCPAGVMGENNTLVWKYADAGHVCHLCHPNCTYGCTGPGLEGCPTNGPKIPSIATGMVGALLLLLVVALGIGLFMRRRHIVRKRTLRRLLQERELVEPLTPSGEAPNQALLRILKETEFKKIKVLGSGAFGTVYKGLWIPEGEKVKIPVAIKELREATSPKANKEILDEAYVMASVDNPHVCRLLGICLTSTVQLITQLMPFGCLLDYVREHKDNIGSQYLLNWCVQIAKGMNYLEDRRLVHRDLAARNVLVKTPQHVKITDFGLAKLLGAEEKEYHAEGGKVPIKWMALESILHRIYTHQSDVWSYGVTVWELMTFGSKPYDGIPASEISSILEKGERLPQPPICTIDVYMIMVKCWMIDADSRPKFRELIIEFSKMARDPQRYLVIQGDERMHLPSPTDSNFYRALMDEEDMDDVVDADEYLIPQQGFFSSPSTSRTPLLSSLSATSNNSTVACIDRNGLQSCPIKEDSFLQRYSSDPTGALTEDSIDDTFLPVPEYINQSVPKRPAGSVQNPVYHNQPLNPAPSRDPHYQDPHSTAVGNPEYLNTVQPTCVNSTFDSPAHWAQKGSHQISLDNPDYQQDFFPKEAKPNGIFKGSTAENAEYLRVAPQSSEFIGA
// field semantics: pIC50 = negative decimal log of concentration (mol/L)

c1cc(Nc2ncnc3nc[nH]c23)cc(-c2nc3ccccc3s2)c1    5.77

// moving on: another record for pIC50
Short answer please: pIC50, Epidermal growth factor receptor (Homo sapiens), entry `c1ccc2sc(-c3ccc(Nc4ncnc5[nH]ccc45)cc3)nc2c1` 5.89

====

Readings of IC50 for the listed compounds
Experimental Target: Angiopoietin-1 receptor (Homo sapiens)
Sequence (Q02763 whole entry): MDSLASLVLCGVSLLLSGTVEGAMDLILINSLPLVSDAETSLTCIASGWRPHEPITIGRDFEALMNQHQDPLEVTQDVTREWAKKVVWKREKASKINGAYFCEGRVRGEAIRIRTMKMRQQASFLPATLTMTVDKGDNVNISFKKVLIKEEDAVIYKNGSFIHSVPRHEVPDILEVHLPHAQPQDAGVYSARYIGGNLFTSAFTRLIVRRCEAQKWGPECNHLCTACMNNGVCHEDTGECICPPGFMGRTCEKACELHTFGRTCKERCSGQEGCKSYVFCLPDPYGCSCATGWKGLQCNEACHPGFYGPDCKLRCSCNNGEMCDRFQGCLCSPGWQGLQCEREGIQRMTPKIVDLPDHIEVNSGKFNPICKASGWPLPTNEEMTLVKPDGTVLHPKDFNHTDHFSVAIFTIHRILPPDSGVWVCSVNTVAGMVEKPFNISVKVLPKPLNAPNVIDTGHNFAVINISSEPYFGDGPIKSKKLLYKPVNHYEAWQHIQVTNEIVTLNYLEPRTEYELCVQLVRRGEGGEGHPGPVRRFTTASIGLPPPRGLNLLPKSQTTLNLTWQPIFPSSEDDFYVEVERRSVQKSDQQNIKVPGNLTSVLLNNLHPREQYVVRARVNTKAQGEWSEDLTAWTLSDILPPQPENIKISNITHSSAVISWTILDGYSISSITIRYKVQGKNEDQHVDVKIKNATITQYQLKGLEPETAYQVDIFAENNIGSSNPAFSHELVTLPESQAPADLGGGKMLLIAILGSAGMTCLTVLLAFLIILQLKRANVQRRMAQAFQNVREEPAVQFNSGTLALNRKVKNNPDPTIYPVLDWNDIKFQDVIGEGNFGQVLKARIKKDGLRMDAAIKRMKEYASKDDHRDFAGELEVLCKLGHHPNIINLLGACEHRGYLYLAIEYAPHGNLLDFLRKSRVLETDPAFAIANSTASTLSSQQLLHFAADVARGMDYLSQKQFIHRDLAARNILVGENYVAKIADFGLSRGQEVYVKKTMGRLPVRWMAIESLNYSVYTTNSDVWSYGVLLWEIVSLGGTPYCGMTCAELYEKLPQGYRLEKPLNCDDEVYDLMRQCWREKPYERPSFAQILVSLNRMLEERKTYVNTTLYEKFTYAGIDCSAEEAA
Test Details: Inhibition of TIE2 by virtual HTS assay
Respond numerically; units are µM and should not be typed.

COc1nc(Nc2ccc(-c3nc4ccccc4s3)c(OC)c2)c2cc[nH]c2n1    2.5
COc1cc(Nc2ncnc3nc[nH]c23)ccc1-c1nc2ccccc2s1    1.3

Here is another compound to look at.
Lab note: need IC50 with Angiopoietin-1 receptor (Homo sapiens) for entry `Clc1cc(Nc2ncnc3ccsc23)ccc1-c1nc2ccccc2s1` , please look it up. 4.4

====

Recorded IC50 values (Proto-oncogene tyrosine-protein kinase Src (Homo sapiens, UniProt P12931)) are given below.

# example entries with known answers
COc1cc2ncnc(Nc3ccc(-c4nc5ccccc5s4)cc3C)c2cc1OC    > 10 µM
COc1cc2ncnc(Nc3ccc(-c4nc5ccccc5s4)c(OC)c3)c2cc1OC    > 10 µM
c1ccc2sc(-c3ccc(Nc4ncnc5nc[nH]c45)cc3)nc2c1    > 10 µM
COc1cc(Nc2ncnc3nc[nH]c23)ccc1-c1nc2ccccc2s1    > 10 µM
CNc1nc(Nc2ccc(-c3nc4ccccc4s3)cc2)c2cc(OC)c(OC)cc2n1    > 10 µM

In the following, a different compound is considered.
Any idea what IC50 came out for `COc1cc(Nc2ncnc3[nH]ccc23)ccc1-c1nc2ccccc2s1` on Proto-oncogene tyrosine-protein kinase Src (Homo sapiens, UniProt P12931)? > 10 µM

====

Here's what we have: IC50 numbers for Insulin receptor (Homo sapiens, UniProt P06213).

c1cc(Nc2ncnc3nc[nH]c23)cc(-c2nc3ccccc3s2)c1    > 10 µM
COc1cc2ncnc(Nc3ccc(F)c(Cl)c3)c2cc1OC    2.6 µM
COc1cc(Nc2nccc(Nc3cc(C)n[nH]3)n2)ccc1-c1nc2ccccc2s1    > 10 µM

Hello, I am looking for reported IC50 with Insulin receptor (Homo sapiens, UniProt P06213) for `COc1cc2ncnc(Nc3ccc(-c4nc5ccccc5s4)c(O)c3)c2cc1OC` . Could you help? > 10 µM

Item: `Clc1ccc2c(Nc3ccc(-c4nc5ccccc5s4)cc3)ccnc2c1` Test system: Insulin receptor (Homo sapiens, UniProt P06213) Read-out: IC50 Value: ? 2.7 µM

Form entry - test system: Insulin receptor (Homo sapiens, UniProt P06213); read-out: IC50; compound: `COc1cc(Nc2ncnc3[nH]ccc23)ccc1-c1nc2ccccc2s1` > 10 µM
